Below are pIC50 values for Tyrosine-protein phosphatase non-receptor type 2 (Homo sapiens, UniProt P17706) collected from several publications.
Expect pIC50 as a plain number equal to -log10 of the molar concentration.

molecule | pIC50
O=C(O)c1ccc(/C=C/c2ccc(O)c(C(=O)O)c2)cc1O | 3.25

What does the data say about its pIC50? Entry: C/C(=C/C(C)=C/c1csc([C@H](Cc2ccc(OCc3ccccc3)cc2)NC(=O)CCc2c[nH]c3ccccc23)n1)C(=O)OCC(=O)O
5.06

Request: CC1(C)CC[C@]2(CCC(=O)O)CC[C@]3(C)C(=CC[C@@H]4[C@@]5(C)CC[C@H](O)C(C)(C)[C@@H]5CC[C@]43C)[C@@H]2C1
5.56
